target: Glucagon-like peptide 1 receptor (Homo sapiens); assay: qHTS of GLP-1 Receptor Inverse Agonists (Inhibition Mode); details: HEK293 GLP-1R CRE-luciferase, luminescence, 24 h, GLP-1R form is constitutively active; series mostly up to 38.3 µM; also: nearly all actives have a fitted effect of over 55% in size
The campaign covered roughly 410,000 compounds. About 6,400 (1.6%) were called active. About 20% were inconclusive and are not listed. Calls follow the shape of the dose curve; as a rule, active = well fitted inhibition curve with a large enough effect; inconclusive = small, poorly fitted or top-dose-only effect; inactive = no such curve, though single readings can be large or run the other way. The sample as a whole holds a higher share of actives than the screen did.
Your reply should match one of these outcome classes. label 1 = active, label 0 = inactive

Field: example entries. Status: answers known.
O=C(NNc1ccccc1Cl)C(O)(c1cccc(C(F)(F)F)c1)c1cccc(C(F)(F)F)c1 = label 1
N#C/C(=C(/O)Cc1cccc2ccccc12)c1nc2ccccc2s1 = label 0
c1ccc2c(CCN3CCNC[C@H]3Cc3cccc4ccccc34)cccc2c1 = label 0
Cc1ccc(S(=O)(=O)NN=C2CC(C)(C)CC(=O)C2(C)C)cc1 = label 0
O=C(CSc1nnc2ccccn12)c1ccccc1 = label 0

Lookup: Give the logged outcome of this assay for the following compound: O=C(CNS(=O)(=O)c1cccc(C(F)(F)F)c1)Nc1ccccc1F
Found: label 0

Lookup: Tell me the assay call for Cc1nnsc1C(=O)NCc1c(F)cccc1Cl please.
Found: label 0

----------
target: Glucagon-like peptide 1 receptor (Homo sapiens) (UniProt P43220); assay: qHTS of GLP-1 Receptor Inverse Agonists (Inhibition Mode); details: HEK293 GLP-1R CRE-luciferase, luminescence, 24 h, GLP-1R form is constitutively active; series mostly up to 38.3 µM; also: nearly all actives have a fitted effect of over 55% in size
Sequence (P43220 whole entry, looked up): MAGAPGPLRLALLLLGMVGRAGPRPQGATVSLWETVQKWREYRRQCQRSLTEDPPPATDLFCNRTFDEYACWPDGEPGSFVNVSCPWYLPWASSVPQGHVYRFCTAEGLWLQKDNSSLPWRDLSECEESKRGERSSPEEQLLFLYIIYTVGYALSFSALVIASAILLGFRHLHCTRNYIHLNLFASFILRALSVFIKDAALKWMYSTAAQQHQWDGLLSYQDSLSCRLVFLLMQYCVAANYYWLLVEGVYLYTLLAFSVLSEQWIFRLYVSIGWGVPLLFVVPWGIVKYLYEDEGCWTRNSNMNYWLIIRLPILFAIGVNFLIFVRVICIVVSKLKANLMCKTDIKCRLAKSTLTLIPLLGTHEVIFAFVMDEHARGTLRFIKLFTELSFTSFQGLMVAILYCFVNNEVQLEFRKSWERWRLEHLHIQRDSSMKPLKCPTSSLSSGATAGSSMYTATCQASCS
Hit rate of the full screen: of about 410,000 compounds, about 6,400 (1.6%) were called active. Inconclusive results (about 20%) are left out. Calls come from the whole dose curve; as a rule, active = well fitted inhibition curve with a large enough effect; inconclusive = small, poorly fitted or top-dose-only effect; inactive = no such curve, though single readings can be large or run the other way. The sample as a whole holds a higher share of actives than the screen did.
A correct response names exactly one class from 1.0 = active, 0.0 = inactive

CCN(CC)c1ncnc2c1ncn2[C@H]1CN(Cc2cccs2)C[C@@H](CO)O1 = 0.0
CCOC1=C2[C@H]([C@H]3C(=O)N(c4ccccc4)C(=O)[C@H]3C1)[C@@H](c1ccccc1)N(S(=O)(=O)c1ccc(C)cc1)[C@H]2c1ccccc1 = 0.0

Lookup: Fill in: this test's call for COn1c(-c2ccc(Cl)cc2Cl)nc2ncccc21 is ___
Found: 0.0

Lookup: Per the records of this test, what outcome belongs to C=CCC[C@H](Cc1ccc(F)cc1)C(=O)OC[C@@H](NC(=O)[C@@H](CC=C)CC(=O)N[C@H](CO)Cc1ccccc1)C(C)(C)C ?
Found: 1.0

Lookup: Hey, what did the test say about CCn1c(-c2cccnc2Cl)nc2cc(C)c(C)cc21 ?
Found: 0.0

Lookup: Which outcome did this test record for the molecule O=C(Nc1ccccc1N1CCCC1)c1ccc2ccccc2c1 ?
Found: 0.0

Lookup: Dear all, I need the recorded test outcome for C=CC[C@@H](CC(=O)N[C@H](CO)Cc1ccccc1)C(=O)N[C@H](C)COC(=O)[C@@H](CC=C)Cc1ccc(F)cc1 , thank you.
Found: 0.0

Lookup: Status in this test for C=CC[C@@H](CC(=O)N[C@@H](CO)Cc1ccccc1)C(=O)N[C@H](COC(=O)[C@H](CC=C)CC(=O)OC(C)(C)C)Cc1ccccc1 ?
Found: 0.0

----------
target: Glucagon-like peptide 1 receptor (Homo sapiens) (UniProt P43220); test: qHTS of GLP-1 Receptor Inverse Agonists (Inhibition Mode); settings: HEK293 GLP-1R CRE-luciferase, luminescence, 24 h, GLP-1R form is constitutively active; series mostly up to 38.3 µM; also: nearly all actives have a fitted effect of over 55% in size
In all, about 410,000 compounds went through this assay and about 6,400 (1.6%) were called active. Roughly 20% stayed inconclusive and do not appear here. Calls follow the shape of the dose curve; as a rule, active = well fitted inhibition curve with a large enough effect; inconclusive = small, poorly fitted or top-dose-only effect; inactive = no such curve, though single readings can be large or run the other way. The full list was thinned out, with actives kept by preference.
Output constraint: value belongs to label 1 for active, label 0 for inactive

Would you please look over these solved cases?
COc1cccc(N2CCN(CC(=O)Nc3ccnn3C3CCCC3)CC2)c1 = label 0
Cc1nc(NC(=O)C23CCC(C)(C(=O)O2)C3(C)C)sc1C (configuration not stated) = label 0
COc1cccc(CC(=O)Nc2ccc(-c3csc(C)n3)cc2)c1 = label 0
Cc1c(NC(=O)CSc2nnnn2-c2ccc(C(=O)O)cc2)c(=O)n(-c2ccccc2)n1C = label 0
CC(=O)c1ccc(Nc2nc(C(N)c3ccccc3)cs2)cc1 (configuration not stated) = label 0
O=C(NCCC1CCCCN1S(=O)(=O)c1cccs1)C(=O)Nc1ccc(F)cc1F (configuration not stated) = label 1
Cc1nc2ccc(NC(=O)C3CCCCC3)cc2s1 = label 0
O=C(COC(=O)c1ccc(S(=O)(=O)N2CCCCCC2)cc1)Nc1ccccc1C(F)(F)F = label 0
CCN(CC)CCCNC(=O)c1c(O)c2cc(F)cc3c2n(c1=O)C(C)CC3 (configuration not stated) = label 1
O=C(NCCCN1CCN(c2cccc(Cl)c2)CC1)c1nnc(Cc2ccc(F)cc2Cl)o1 = label 1

Lookup: Assay result, entry CCN(C(=O)Nc1cccc2ccccc12)c1ccccc1 — outcome?
Found: label 0

Lookup: Assay result, entry Cn1c(C(=O)NCCCN2CCN(c3cccc(Cl)c3)CC2)cc2c(=O)n(C)c3ccccc3c21 — outcome?
Found: label 0

Lookup: Any idea what this test logged for CCc1cccc(NC(=O)CSc2nccn2C)c1 ?
Found: label 0

Lookup: Which outcome was entered for the molecule CC(=O)Nc1ccc(SCC(=O)NC(=O)c2ccc(Cl)cc2)cc1 in this test?
Found: label 0

----------
molecular target: Glucagon-like peptide 1 receptor (Homo sapiens) (UniProt P43220); experiment: qHTS of GLP-1 Receptor Inverse Agonists (Inhibition Mode); conditions: HEK293 GLP-1R CRE-luciferase, luminescence, 24 h, GLP-1R form is constitutively active; series mostly up to 38.3 µM; also: nearly all actives have a fitted effect of over 55% in size
Screen size: about 410,000 compounds; about 6,400 (1.6%) were called active. About 20% were inconclusive and are not listed. The call rests on the fitted dose curve; in most records, active means well fitted inhibition curve with a large enough effect; inconclusive means small, poorly fitted or top-dose-only effect; inactive means no such curve, though single readings can be large or run the other way. The sample as a whole holds a higher share of actives than the screen did.
Respond using exactly one of the listed classes: Yes for active, No for inactive

The examples below pair each entry with its known result.
CC1=NN(C(=O)c2ccc(Br)cc2)C(O)(c2ccccc2)C1 (stereo not given) = Yes
CCOc1ccc(N(Cc2ccccc2)C(=O)c2nc(SCC)ncc2Cl)cc1 = Yes
O=C(NCc1ccco1)c1cccc(-c2ccc3nncn3c2)c1 = No
CC1=NN(C(=O)c2ccccc2Br)C(O)(c2cccnc2)C1 (stereo not given) = No

Lookup: Would you mind telling me which call this test gave CCCNC(=O)C[C@@H]1CC[C@@H]2[C@H](COC[C@H](O)CN2C(=O)c2cc(Cl)cc(Cl)c2)O1 ?
Found: No

----------
biological target: Glucagon-like peptide 1 receptor (Homo sapiens); test: qHTS of GLP-1 Receptor Inverse Agonists (Inhibition Mode); conditions: HEK293 GLP-1R CRE-luciferase, luminescence, 24 h, GLP-1R form is constitutively active; series mostly up to 38.3 µM; also: nearly all actives have a fitted effect of over 55% in size
Screen size: about 410,000 compounds; about 6,400 (1.6%) were called active. Not shown: some 20% with an inconclusive outcome. Calls come from the whole dose curve; as a rule, active = well fitted inhibition curve with a large enough effect; inconclusive = small, poorly fitted or top-dose-only effect; inactive = no such curve, though single readings can be large or run the other way. The sample as a whole holds a higher share of actives than the screen did.
Use one of these outcomes when replying: active, inactive

Cc1ccccc1CN1C(=O)c2ccccc2Sc2ccc(C(=O)NCCCN3CCOCC3)cc21 = inactive

Lookup: I would be grateful if you could indicate the recorded call for Cc1ccc(C(O)c2ncc(-c3ccccc3F)[nH]2)cc1F (stereo unspecified) .
Found: inactive

Lookup: Please state the recorded outcome for this molecule: CN(C)C(CNC(=O)c1cccc(S(=O)(=O)N2CCc3ccccc3C2)c1)c1ccccc1 (stereo unspecified)
Found: inactive

Lookup: Identify the outcome logged in this assay for the molecule shown: Cc1ccc(-c2noc(CSc3nnc(-c4ccc(Cl)cc4)n3C)n2)cc1
Found: inactive

Lookup: Please indicate how the test categorized O=C(c1ccccc1)N1CCN(c2cc(-c3ccccc3)nc3cc(-c4cccc(Cl)c4)nn23)CC1 .
Found: inactive

Lookup: Given Cc1cccc(S(=O)(=O)N(C)C[C@@H]2OCc3cnnn3CCCC(=O)N([C@H](C)CO)C[C@@H]2C)c1 , state the outcome it received in this test.
Found: inactive

----------
Target: Glucagon-like peptide 1 receptor (Homo sapiens)
Test: qHTS of GLP-1 Receptor Inverse Agonists (Inhibition Mode); also: nearly all actives have a fitted effect of over 55% in size
Conditions: HEK293 GLP-1R CRE-luciferase, luminescence, 24 h, GLP-1R form is constitutively active; series mostly up to 38.3 µM
Experimental: The overall goal of this project was to develop a novel assay for discovering small molecule ligands for class B1 G protein-coupled receptors (GPCRs). […] The assay was developed using a cell-based functional readout. […] Six ul of cell suspension (200 cells/uL in DMEM + 10% Nu serum + 1% pen-strep) is dispensed in a white solid 1536-well plate. […] A luminescence read is obtained on the PerkinElmer Viewlux after 12 min incubation at room temperature.
Among all 410,000 compounds or so, about 6,400 (1.6%) were called active. Another 20% or so got no clear call; they are omitted. Calls come from the whole dose curve; as a rule, active = well fitted inhibition curve with a large enough effect; inconclusive = small, poorly fitted or top-dose-only effect; inactive = no such curve, though single readings can be large or run the other way. The list comes from a sample in which actives are over-represented; it also holds close analogues and randomly drawn compounds.
The reply should name one outcome from 1.0 = active, 0.0 = inactive

CC(C)(C)S(=O)N1Cc2cc(C(=O)NCCCN3CCOCC3)nc(-c3cccc(-c4cc5ccccc5o4)c3)c2[C@H]1CCO (stereo partly specified) = 0.0
O=C(NC1(C(F)(F)F)N=C(c2ccccc2)N(C2CCCCC2)C1=O)c1ccccc1F (stereo unspecified) = 1.0
CCCN1CCc2nc(N3CCN(C)CC3)ncc2C1 = 0.0

We now examine a further compound.
Lookup: How was Cc1ccc(S(=O)(=O)N2C[C@@H](C)[C@]3(C2)[C@H](O)[C@H](OC(=O)NCc2ccccc2)C[C@H]2C(=O)N(c4ccccc4)C(=O)[C@H]23)cc1 classified in this test?
Found: 0.0
